System: NCI-H23 lung
Assay: NCI tumour cell line growth inhibition, 48 h
ENDPOINT: TGI

Illustrative cases are given below, each with its answer.
- STRUCTURE: "O=C(O)c1ccc(Oc2nc3ccccc3s2)cc1"
  RESULT: "> 100 µM"
- STRUCTURE: "O=C(O)c1cccc(OCCOc2cccc(C(=O)O)c2[N+](=O)[O-])c1[N+](=O)[O-]"
  RESULT: "> 100 µM"

In the following, a different molecule is considered.
What value of TGI has been recorded for this entry: `O=c1nc(N2CCCC2)nc(N2CCCC2)s1`
> 100 µM

###

Tested on: SNB-75 CNS
Experiment: NCI tumour cell line growth inhibition, 48 h
Readings of TGI for the listed molecules

Answered examples (3):
- MOLECULE: "NC(=S)N/N=C(\\CCC(=O)Nc1ccccc1[N+](=O)[O-])CC(=O)c1ccco1"
  RESULT: "> 100 µM"
- MOLECULE: "C1=C(c2ccccc2)O[C@H](COCc2ccccc2)C(OCc2ccccc2)[C@@H]1OCc1ccccc1 (some centres undefined)"
  RESULT: "> 10 µM"
- MOLECULE: "CO[C@H]1O[C@@H]2OC3(C)CCC4[C@H](C)CCC([C@H]1C)[C@]42OO3 (some centres undefined)"
  RESULT: "> 100 µM"

Dear colleague, I am looking for the recorded TGI of the following molecule: `CC(C)(Oc1ccc2c(=O)cc(-c3ccccc3)oc2c1)C(=O)N1CCN(c2ccccc2)CC1`
> 10 µM

For COC(=O)CC(CNC(=O)OCc1ccccc1)OCc1ccc(OC)cc1 (centres undefined) , what is its reported TGI?
> 100 µM

Endpoint output: TGI of CC(C)CC(NC=O)C(=O)NC(Cc1ccccc1)NC(=O)CNC(=O)C(C)NC(=O)C(N)Cc1ccc(O)cc1 (centres undefined) . Value?
> 100 µM
